Each entry below carries its recorded Z score Rep1.
# Assayed Target: SpCas9 (Streptococcus pyogenes serotype M1)
# Sequence (Q99ZW2 whole entry): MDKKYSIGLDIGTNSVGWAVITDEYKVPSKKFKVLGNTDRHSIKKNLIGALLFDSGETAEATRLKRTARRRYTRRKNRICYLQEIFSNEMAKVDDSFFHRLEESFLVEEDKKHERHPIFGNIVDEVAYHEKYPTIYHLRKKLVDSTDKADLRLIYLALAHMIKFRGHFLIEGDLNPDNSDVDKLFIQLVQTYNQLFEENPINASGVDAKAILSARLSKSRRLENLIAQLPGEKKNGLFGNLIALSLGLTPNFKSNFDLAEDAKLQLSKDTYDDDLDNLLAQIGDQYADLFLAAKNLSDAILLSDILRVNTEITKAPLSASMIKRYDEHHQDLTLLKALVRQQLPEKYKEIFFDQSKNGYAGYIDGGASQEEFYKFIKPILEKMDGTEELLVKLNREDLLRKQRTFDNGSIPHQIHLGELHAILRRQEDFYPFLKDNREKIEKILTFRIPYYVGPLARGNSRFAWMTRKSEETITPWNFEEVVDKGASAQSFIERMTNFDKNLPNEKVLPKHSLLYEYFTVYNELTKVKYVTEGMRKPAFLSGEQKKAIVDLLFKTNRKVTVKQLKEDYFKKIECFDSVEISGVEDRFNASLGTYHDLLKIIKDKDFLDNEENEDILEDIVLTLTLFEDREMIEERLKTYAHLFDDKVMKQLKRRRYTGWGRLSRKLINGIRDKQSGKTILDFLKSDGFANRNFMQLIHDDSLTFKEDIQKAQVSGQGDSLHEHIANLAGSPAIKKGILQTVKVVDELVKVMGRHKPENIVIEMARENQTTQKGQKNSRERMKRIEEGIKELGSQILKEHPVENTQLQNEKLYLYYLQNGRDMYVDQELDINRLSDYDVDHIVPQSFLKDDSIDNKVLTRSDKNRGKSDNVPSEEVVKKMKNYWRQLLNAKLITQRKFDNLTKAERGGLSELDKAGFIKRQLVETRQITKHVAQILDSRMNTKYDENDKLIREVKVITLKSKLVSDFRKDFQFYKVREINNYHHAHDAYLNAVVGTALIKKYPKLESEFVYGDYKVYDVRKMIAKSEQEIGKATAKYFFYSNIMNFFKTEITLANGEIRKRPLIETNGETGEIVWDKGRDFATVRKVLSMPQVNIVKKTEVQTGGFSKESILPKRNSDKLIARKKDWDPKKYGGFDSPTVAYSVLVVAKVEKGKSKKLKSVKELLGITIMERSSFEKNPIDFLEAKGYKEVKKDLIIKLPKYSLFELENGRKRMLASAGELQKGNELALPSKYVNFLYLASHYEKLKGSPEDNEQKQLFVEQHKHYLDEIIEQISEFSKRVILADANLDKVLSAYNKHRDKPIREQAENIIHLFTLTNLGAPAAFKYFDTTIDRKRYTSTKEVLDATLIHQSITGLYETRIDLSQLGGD
# Protocol Text: eGFP disruption assay, SpCas9, U2OS.eGFP.PEST cells
# Format: cell-based
# Assay Setup: replicate 1
Please respond with just the number, no unit label.

Worked examples follow.
[[record]]
compound = "O=C(O)c1cc(NS(=O)(=O)c2cc(F)ccc2F)cnc1N1CCC(N2CCCCC2)CC1 [Compound F293-0616]"
val = "−2.62"

[[record]]
compound = "N#Cc1[nH]c(=O)n(Cc2ccccc2)c1N [Cpd10]"
val = 0.06

[[record]]
compound = "CCN1C(=O)c2cccc3cccc1c23 [Compound T0503-6911]"
val = 3.76

[[record]]
compound = "COc1ccc(S(=O)(=O)CCC(=O)Nc2nc(-c3ccncc3)cs2)cc1 [Cpd4]"
val = "−3.70"

[[record]]
compound = "COc1ccc(C2CNC(=O)C2)cc1OC1CCCC1 (stereo not shown) [Compound S2127]"
val = "−0.74"


stdin: Quick one: give measured Z score Rep1 for O=C(CCS(=O)(=O)c1ccc(Cl)cc1)Nc1nc(-c2ccncc2)cs1 [Compound G786-1325]
stdout: 5.65

stdin: Quick one: give measured Z score Rep1 for O=C(O)c1ccc(N2CCN(c3ccccn3)CC2)c(NC(=O)c2ccc(Br)cc2)c1 [Compound F086-0619]
stdout: −0.82
